Every entry's value here was drawn from PubChem BioAssay (NCI).

- System: HL-60(TB) leukemia
- measurementDescription: NCI-60 one-dose screen, 48 h (100 = growth as untreated, 0 = no growth, -100 = all killed)
- assayContext: 10 µM unless noted
The panel holds about 83,000 compounds, 20% with a hit somewhere; the sample as a whole holds those more often.
measure: growth (%)
I only need the number, in %, no unit after it.

Study these solved cases before continuing.
compound	reported
CC[C@H](C)[C@H](NC(=O)c1ccccn1)C(=O)N(C)[C@H](C[C@@H](OC(C)=O)c1nc(C(=O)N[C@@H](Cc2ccccc2)C[C@H](C)C(=O)OC)cs1)C(C)C	-21.2
O=C(CC1(O)C(=O)N(Cc2ccccc2)c2ccc(Cl)cc21)c1ccc(C(=O)NCC2CCC3(CC2)OOC2(CCCCC2)OO3)cc1 (stereo not drawn)	-62.7
C[C@@]1(CCCCCCCCCc2ccc(O)cc2)C[C@]2(C)OC(=O)C[C@@H]2OO1	81

Asked: Data request, read-out growth, for COC(=O)[C@H](Cc1ccccc1)NC(=O)c1csc([C@@H](C[C@H](C(C)C)N(C)C(=O)[C@@H](NC(=O)[C@H]2CCCCN2C)C2CC2)OC(C)=O)n1
Given back: -43.1

Asked: Now give it for COc1ccc(/C=C\c2cc(OC)c(OC)c(OC)c2)cc1OCC(=O)Nc1nc2ccc(C(F)(F)F)cc2s1 too.
Given back: 11.8

Asked: Now give it for Cc1ccc2c(C(C[N+](=O)[O-])c3cccs3)c(-c3ccccc3)[nH]c2c1 (stereo not drawn) too.
Given back: 0.431

Asked: Now give it for Cc1cnc(/C=C/C(=O)O)cc1-c1cc2c(cc1C)C(C)(C)CCC2(C)C too.
Given back: 63.3

Asked: Now give it for c1ccc(COc2ccc3[nH]cc(CCN(Cc4ccccc4)Cc4ccccc4)c3c2)cc1 too.
Given back: 91.8

###

- System: BT-549 breast
- measurementDescription: NCI-60 one-dose screen, 48 h
- assayContext: 10 µM unless noted
- Experimental: Growth inhibition of the BT-549 human tumor cell line is measured as a screen for anti-cancer activity. Cells are grown in 96 well plates and exposed to the test compound for 48 hours. Compounds are tested at a single concentration, which is 10^-5 M for most compounds. The reported endpoint is percent growth (GI% or GIPRCNT), where numbers from 0 - 100% represent growth inhibition, and numbers from -100% - 0 represent cell death. For example, a value of 40 represents 60% growth inhibition. […]
Compounds without any hit were thinned out: in the full panel of roughly 83,000, 20% have a hit. Active and inactive are the calls of the source. How the source made its calls: active means growth percent below 10; inactive means the rest.
Output constraint: value belongs to T for active, F for inactive

# count of solved cases: 8
compound	classLabel
Oc1c(O)c(Cl)c(Cl)c(Cl)c1Cl	F
N#CC1(c2ccccc2)CCN(Cc2ccccc2)CC1	F
CC(=O)O[C@H](C[C@H](C(C)C)N(C)C(=O)[C@@H](NC(=O)[C@H]1CCCCN1C)C(C)C)c1cccc(C(=O)N[C@@H](Cc2ccccc2)C[C@H](C)C(=O)O)n1	T
COC(=O)CC12CC(NC(=O)c3csc([C@@H](C[C@H](C(C)C)N(C)C(=O)[C@@H](NC(=O)[C@H]4CCCCN4C)C(C)C)OC(C)=O)n3)(C1)C2	T
C[C@@H]1C[C@@]2(C)[C@@H](CC[C@@H]3[C@@H]2CC[C@]2(C)C(=O)CC[C@@H]32)CC1=O	F
C[N+](C)(C)Cc1cc(Cl)ccc1O	F
COC(=O)[C@@H](C)C[C@H](Cc1ccccc1)NC(=O)c1csc([C@@H](C[C@H](C(C)C)N(C)C(=O)[C@H](C)NC(=O)[C@H]2CCCCN2C)OC(C)=O)n1	F
N/C(=N/N=C/c1ccncc1)N[N+](=O)[O-]	F

Asked: // return assay outcome for CCCCCSC1C2C(=O)C(Br)=CC13CCNc1c(O)c4c5c(c13)=[N+]2CCC=5C=N4 (stereo unspecified)
Given back: F

Asked: Now give it for C=CC12CCN(CC1)C(C(O)c1ccnc3ccc(OC)cc13)C2 (stereo unspecified) too.
Given back: F

Asked: Now give it for N#C[Se]CCN1C(=O)c2ccccc2C1=O too.
Given back: F

###

- Test system: A549/ATCC NSCLC
- measurementDescription: NCI-60 one-dose screen, 48 h
- assayContext: 10 µM unless noted
Compounds without any hit were thinned out: in the full panel of roughly 83,000, 20% have a hit. The source made the active and inactive calls. Rule for the calls: active = growth percent below 10; inactive = the rest.
Output constraint: value belongs to active, inactive

compound	classLabel
O=C1C(=Cc2cn(Cc3ccccc3)c3ccccc23)C(=O)N(Cc2ccccc2)C(=O)N1Cc1ccccc1	inactive
Nc1cc2nc3ccccc3nc2cc1N	inactive
Cc1ccc(S(=O)(=O)C(Cl)(Cl)Cl)cc1	inactive
c1ccc(COc2ccc3[nH]cc(CCN(Cc4ccccc4)Cc4ccccc4)c3c2)cc1	inactive

// next entry
Asked: // return assay outcome for CCCC(=O)O[C@@H]1C[C@H]2C[C@@H](O[C@@H]3O[C@@H](C)[C@@H](O)[C@@H](O)[C@H]3OC)C[C@@H](C[C@@H](C)/C=C/C=C\C[C@@H]3O[C@@H](C[C@@H]3C)[C@@H](O)C[C@H]3C[C@@]1(O)C(=O)O3)O2
Given back: inactive

###

- System: NCI-H23 lung
- measurementDescription: NCI-60 one-dose screen, 48 h (100 = growth as untreated, 0 = no growth, -100 = all killed)
- assayContext: 10 µM unless noted
This is part of a sample that, as a whole, favours compounds with a hit. Of some 83,000 tested, about 20% had one in any assay. Calls of active or inactive are those of the source. The calls were made as follows: active = growth percent below 10; inactive = the rest.
measure: growth

CCOC(=O)N1CC1 107% (inactive)

Asked: Data request, read-out growth, for O=[N+]([O-])c1cc([N+](=O)[O-])c(Cl)cc1Cl
Given back: -56.4% (active)

Asked: Now give it for CC[CH2][Sn]([Cl])([Cl])[CH2]CC too.
Given back: 76.9% (inactive)

###

- Test system: PC-3 prostate
- measurementDescription: NCI-60 one-dose screen, 48 h (100 = growth as untreated, 0 = no growth, -100 = all killed)
- assayContext: 10 µM unless noted
This is part of a sample that, as a whole, favours compounds with a hit. Of some 83,000 tested, about 20% had one in any assay.
measure: growth (%)
I only need the number, in %, no unit after it.

compound	unitOfMeasure	growth
CC(CC1CCCCC1)NCc1ccccc1 (stereo not given)	%	88.6

Asked: Data request, read-out growth, for CCn1nccc1NC(=O)C(=O)c1cn(Cc2ccc(F)cc2)c2cccc(OC)c12
Given back: 90.6

Asked: Now give it for CC1=C(CN)C2=C(C)C3(CC3)[C@@](C)(O)C(=O)C2=C1 too.
Given back: 88.3

Asked: Now give it for Fc1ccc(N2COOC3(OOC2)C2CC4CC(C2)CC3C4)cc1 too.
Given back: 90.4

Asked: Now give it for Cc1cc(N(CCCl)CCCl)ccc1/C=N\NC(=O)c1ccncc1 too.
Given back: 88.9

###

- System: A498 renal
- measurementDescription: NCI-60 one-dose screen, 48 h
- assayContext: 10 µM
The panel holds about 83,000 compounds, 20% with a hit somewhere; the sample as a whole holds those more often. Activity calls are given as the source filed them. How the source made its calls: active means growth percent below 10; inactive means the rest.
Output constraint: value belongs to active, inactive

# count of solved cases: 4
compound	classLabel
Cc1c(NS(=O)(=O)c2ccccc2)ccc([N+](=O)[O-])c1Cl	inactive
CCOC(=O)[C@@H](C)C[C@H](Cc1ccccc1)NC(=O)c1csc([C@@H](C[C@H](C(C)C)N(C)C(=O)[C@@H](NC(=O)[C@H]2CCCCN2C)C(C)(C)C)OC(C)=O)n1	active
C=CCCCN=C=S	inactive
COC(=O)[C@@H](NC(=O)c1cn(CCC2CCCCC2)c2ccccc12)C(C)(C)C	inactive

// next entry
Asked: // return assay outcome for CC(=O)OC1C(OC/C2=C/C3[C@@H](C(C)C)CC=C(C)[C@@H]3CC(OC(=O)/C=C/c3cn(C)cn3)[C@]3(C)C=C[C@@]2(O)O3)OCC(O)C1O (stereo not given in full)
Given back: inactive

###

- Test system: SK-MEL-28 melanoma
- measurementDescription: NCI-60 one-dose screen, 48 h (100 = growth as untreated, 0 = no growth, -100 = all killed)
- assayContext: 10 µM unless noted
About 83,000 compounds went through this panel and 20% of them were active in at least one assay; those are over-represented in the sample as a whole.
growth reference
I only need the number, in %, no unit after it.

Study these solved cases before continuing.
molecule	unitOfMeasure	growth
CCCCNC(c1ccc(Cl)cc1)C(O)c1ccc(Cl)cc1 (stereo not drawn)	%	45.6
CCc1ccccc1[C@@H]1C[C@]2(C)CCO[C@@H]2OO1	%	110
Cc1ccccc1NC(=NCCCN1CC1)Nc1ccccc1C	%	111
CN(C)C(=O)Oc1ccccc1	%	111
CN(C)CC(C(=O)Cc1ccccc1)c1ccccc1 (stereo not drawn)	%	96.5
N#CC1C(C#N)C2CCC1C1C2N1c1ccccc1 (stereo not drawn)	%	106

Query molecule follows.
Asked: Missing value: growth, SK-MEL-28 melanoma, entry ClCCN(CCCl)c1ccc(/C=N/Nc2ncnc3nc[nH]c23)cc1 . Fill in?
Given back: 117
